Test system: MDA-MB-157
protocol details: SRB cytotoxicity assay 48 hr
Type: cell-based, human
study conditions: Homo sapiens, MDA-MB-157, 48 h, read-out: IC50 Values After 48 Hrs Exposure
readout name: IC50
Answer with the figure and its unit, nothing else.

Value of measured IC50 for the entry O=C(O)C(F)(F)C(F)(F)C(F)(F)C(F)(F)C(F)(F)C(F)(F)C(F)(F)F [APFO, Ammonium Perfluorooctanoate] : 512 µM

---

protocol details: Phase I study CXR1002-001: plasma pharmacokinetics (LC-MS/MS)
Assay type: in vivo, human
study conditions: human, plasma, oral, 50 mg, Patient 001 Dose 50 mg; 72 hr
readout name: concentration at 72 hr (µM)
Please respond with the number in µM and leave the unit unwritten.

Value of measured concentration at 72 hr for the entry O=C(O)C(F)(F)C(F)(F)C(F)(F)C(F)(F)C(F)(F)C(F)(F)C(F)(F)F [CXR1002] : 9.7

---

protocol details: Phase I study CXR1002-001: plasma pharmacokinetics (LC-MS/MS)
Assay type: in vivo, human
study conditions: human, plasma, po, 1000 mg, Patient 042, 1000 mg weekly oral dose, Time 168 hr (Day 8); read-out: Concentration (plasma level)
readout name: concentration at 168 hr (µM)
Please respond with the number in µM and leave the unit unwritten.

Value of measured concentration at 168 hr for the entry O=C(O)C(F)(F)C(F)(F)C(F)(F)C(F)(F)C(F)(F)C(F)(F)C(F)(F)F : 251

---

protocol details: Phase I study CXR1002-001: plasma pharmacokinetics (LC-MS/MS)
Assay type: in vivo, human
study conditions: human, plasma, oral, 950 mg, Patient 032, 950 mg, person, plasma, 2 hr; read-out: Concentration
readout name: concentration at 2 h (µM)
Please respond with the number in µM and leave the unit unwritten.

Value of measured concentration at 2 h for the entry O=C(O)C(F)(F)C(F)(F)C(F)(F)C(F)(F)C(F)(F)C(F)(F)C(F)(F)F [CXR1002] : 292

---

protocol details: Phase I study CXR1002-001: plasma pharmacokinetics (LC-MS/MS)
Format: in vivo, human
study conditions: human, plasma, oral, 450 mg, Patient 016 Dose 450 mg; 528 hr (Day 23); read-out: Concentration
readout name: concentration at 528 h (µM)
Please respond with the number in µM and leave the unit unwritten.

Value of measured concentration at 528 h for the entry O=C(O)C(F)(F)C(F)(F)C(F)(F)C(F)(F)C(F)(F)C(F)(F)C(F)(F)F : 692

---

protocol details: Phase I study CXR1002-001: plasma pharmacokinetics (LC-MS/MS)
Type: in vivo, human
study conditions: human, plasma, oral, 750 mg, Patient 026, 750 mg, person, plasma, 339 hr; read-out: Concentration
readout name: concentration at 339 h
Answer with the figure and its unit, nothing else.

Value of measured concentration at 339 h for the entry O=C(O)C(F)(F)C(F)(F)C(F)(F)C(F)(F)C(F)(F)C(F)(F)C(F)(F)F : 506 µM

---

protocol details: Phase I study CXR1002-001: plasma pharmacokinetics (LC-MS/MS)
Assay type: in vivo, human
study conditions: human, plasma, oral, 300 mg, Patient 012 Dose 300 mg; 3 hr; read-out: Concentration
readout name: concentration at 3 h (µM)
Please respond with the number in µM and leave the unit unwritten.

Value of measured concentration at 3 h for the entry O=C(O)C(F)(F)C(F)(F)C(F)(F)C(F)(F)C(F)(F)C(F)(F)C(F)(F)F [CXR1002] : 93.5

---

protocol details: Phase I study CXR1002-001: plasma pharmacokinetics (LC-MS/MS)
Assay type: in vivo, human
study conditions: human, plasma, oral, 1200 mg, Patient 033, 1200 mg, person, plasma, 672 hr (Day 29); read-out: Concentration
readout name: concentration at 672 h (µM)
Please respond with the number in µM and leave the unit unwritten.

Value of measured concentration at 672 h for the entry O=C(O)C(F)(F)C(F)(F)C(F)(F)C(F)(F)C(F)(F)C(F)(F)C(F)(F)F : 1020

---

protocol details: Phase I study CXR1002-001: plasma pharmacokinetics (LC-MS/MS)
Format: in vivo, human
study conditions: human, plasma, oral, 950 mg, Patient 029, 950 mg, person, plasma, 506 hr; read-out: Concentration
readout name: concentration at 506 h (µM)
Please respond with the number in µM and leave the unit unwritten.

Value of measured concentration at 506 h for the entry O=C(O)C(F)(F)C(F)(F)C(F)(F)C(F)(F)C(F)(F)C(F)(F)C(F)(F)F : 897

---

protocol details: Phase I study CXR1002-001: plasma pharmacokinetics (LC-MS/MS)
Type: in vivo, human
study conditions: human, plasma, oral, 950 mg, Patient 031, 950 mg, person, plasma, 360 hr (Day 16); read-out: Concentration
readout name: concentration at 360 h (µM)
Please respond with the number in µM and leave the unit unwritten.

Value of measured concentration at 360 h for the entry O=C(O)C(F)(F)C(F)(F)C(F)(F)C(F)(F)C(F)(F)C(F)(F)C(F)(F)F : 800

---

protocol details: Phase I study CXR1002-001: plasma pharmacokinetics (LC-MS/MS)
Type: in vivo, human
study conditions: human, plasma, oral, 1200 mg, Patient 033, 1200 mg, person, plasma, 2 hr; read-out: Concentration
readout name: concentration at 2 h (µM)
Please respond with the number in µM and leave the unit unwritten.

Value of measured concentration at 2 h for the entry O=C(O)C(F)(F)C(F)(F)C(F)(F)C(F)(F)C(F)(F)C(F)(F)C(F)(F)F : 441

---

protocol details: Phase I study CXR1002-001: plasma pharmacokinetics (LC-MS/MS)
Assay type: in vivo, human
study conditions: human, plasma, oral, 750 mg, Patient 028, 750 mg, person, plasma, 844 hr; read-out: Concentration
readout name: concentration at 844 h (µM)
Please respond with the number in µM and leave the unit unwritten.

Value of measured concentration at 844 h for the entry O=C(O)C(F)(F)C(F)(F)C(F)(F)C(F)(F)C(F)(F)C(F)(F)C(F)(F)F : 853

---

protocol details: Phase I study CXR1002-001: plasma pharmacokinetics (LC-MS/MS)
Assay type: in vivo, human
study conditions: human, plasma, po, 1200 mg, Patient 036, 1200 mg weekly oral dose, Time 840 hr (Day 36); read-out: Concentration (plasma level)
Source text: PK samples, PD (fasting) samples, blood glucose, and blood triglyceride samples, were taken over a 6-week period. Dose limiting toxicity (DLT) will be based on the toxicity assessments over the first 3-week period of the repeat dosing schedule. […]
readout name: concentration at 840 h (µM)
Please respond with the number in µM and leave the unit unwritten.

Value of measured concentration at 840 h for the entry O=C(O)C(F)(F)C(F)(F)C(F)(F)C(F)(F)C(F)(F)C(F)(F)C(F)(F)F : 948

---

protocol details: Phase I study CXR1002-001: plasma pharmacokinetics (LC-MS/MS)
Type: in vivo, human
study conditions: human, plasma, oral, 50 mg, Patient 001 Dose 50 mg; 528 hr (Day 22); read-out: Concentration
readout name: concentration at 528 h (µM)
Please respond with the number in µM and leave the unit unwritten.

Value of measured concentration at 528 h for the entry O=C(O)C(F)(F)C(F)(F)C(F)(F)C(F)(F)C(F)(F)C(F)(F)C(F)(F)F : 11.6

---

protocol details: Phase I study CXR1002-001: plasma pharmacokinetics (LC-MS/MS)
Type: in vivo, human
study conditions: human, plasma, po, 1000 mg, Patient 042, 1000 mg weekly oral dose, Time 338 hr; read-out: Concentration (plasma level)
readout name: concentration at 338 hr (µM)
Please respond with the number in µM and leave the unit unwritten.

Value of measured concentration at 338 hr for the entry O=C(O)C(F)(F)C(F)(F)C(F)(F)C(F)(F)C(F)(F)C(F)(F)C(F)(F)F : 645

---

protocol details: Phase I study CXR1002-001: plasma pharmacokinetics (LC-MS/MS)
Type: in vivo, human
study conditions: human, plasma, oral, 200 mg, Patient 008 Dose 200 mg; 0 hr
readout name: concentration at 0 hr (nM)
Please respond with the number in nM and leave the unit unwritten.

Value of measured concentration at 0 hr for the entry O=C(O)C(F)(F)C(F)(F)C(F)(F)C(F)(F)C(F)(F)C(F)(F)C(F)(F)F : 0

---

protocol details: Phase I study CXR1002-001: plasma pharmacokinetics (LC-MS/MS)
Assay type: in vivo, human
study conditions: human, plasma, oral, 100 mg, Patient 006 Dose 100 mg; 172 hr; read-out: Concentration
Excerpt: PK samples, PD (fasting) samples, blood glucose, and blood triglyceride samples, were taken over a 6-week period. Dose limiting toxicity (DLT) will be based on the toxicity assessments over the first 3-week period of the repeat dosing schedule. […]
readout name: concentration at 172 hr (µM)
Please respond with the number in µM and leave the unit unwritten.

Value of measured concentration at 172 hr for the entry O=C(O)C(F)(F)C(F)(F)C(F)(F)C(F)(F)C(F)(F)C(F)(F)C(F)(F)F : 47.5
